# test: pH Stability test of α-D-glucosyl kasugamycin
# Assay type: physicochemical
# particulars: buffer; pH 8.0; 120° C. for 1 hour; mean, n = 5; read-out: Residue (%)
value_kind: remaining at 1 h (%)

{"molecule": "C[C@H]1O[C@H](O[C@H]2[C@H](O)[C@@H](O)[C@@H](O)[C@H](O)[C@@H]2O)[C@@H](N)C[C@@H]1NC(=N)C(=O)O [Kasugamycin, kasugamycin]", "assay_value": 9.5}
